- Measured target: estrogen receptor (Homo sapiens (Human), UniProt P03372)
- Sequence (P03372 whole entry): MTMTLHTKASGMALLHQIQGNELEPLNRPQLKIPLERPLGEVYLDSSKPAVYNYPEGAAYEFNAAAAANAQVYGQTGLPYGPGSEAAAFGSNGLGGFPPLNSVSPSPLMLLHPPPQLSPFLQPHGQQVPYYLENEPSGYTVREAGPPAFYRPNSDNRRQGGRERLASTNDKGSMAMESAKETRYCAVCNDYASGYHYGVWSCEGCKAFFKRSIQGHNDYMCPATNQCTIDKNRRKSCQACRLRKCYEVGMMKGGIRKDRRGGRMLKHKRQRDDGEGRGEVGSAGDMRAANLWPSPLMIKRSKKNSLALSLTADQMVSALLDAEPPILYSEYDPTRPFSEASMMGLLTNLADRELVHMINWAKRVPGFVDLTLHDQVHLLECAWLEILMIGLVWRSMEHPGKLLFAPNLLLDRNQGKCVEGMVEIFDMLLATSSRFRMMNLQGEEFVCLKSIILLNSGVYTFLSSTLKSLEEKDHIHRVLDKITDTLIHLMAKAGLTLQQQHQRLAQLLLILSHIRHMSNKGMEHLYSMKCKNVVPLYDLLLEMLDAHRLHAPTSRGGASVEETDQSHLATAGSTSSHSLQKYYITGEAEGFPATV
- Test method notes: 2×VIT ERE infection luciferase assay
- Assay type: cell-based
- Run parameters: 1 uM compound alone; percentage of activity as compared to 17β-estradiol
Assay endpoint: Infection Luciferase Activity, 1 uM (%)
Give a bare numeral; the unit % is implied.

                              smiles_string  measurement_unit  reported
0  Cc1c(-c2ccc(O)cc2)n(Cc2ccc(OCCCN3CCCCC3)cc2)c2ccc(O)cc12                 %        25

## Task Reported Infection Luciferase Activity, 1 uM, compound Cc1c(-c2ccccc2)n(Cc2ccc(OCCN3CCCCCC3)cc2)c2ccc(O)cc12 : ____
## Result −4

## Task Reported Infection Luciferase Activity, 1 uM, compound Cc1c(-c2ccc(O)cc2)n(Cc2ccc(OCCN3CCC(C)CC3)cc2)c2ccc(O)cc12 : ____
## Result 8

Ref: patent US8815934B2
